Answer each item with its documented Photostabilizer pKa.
# TEST DESCRIPTION: pKa of photostabilizer (half neutralization potential titration)
# Format: physicochemical
# STATED CONDITIONS: non-aqueous titration, HNP calibration curve
One number for each entry.

{"CHEM SMILES": "CCCCCCCCCCCON1C(C)(C)CC(OC(=O)OC2CC(C)(C)N(OCCCCCCCCCCC)C(C)(C)C2)CC1(C)C", "RECORDED MEASUREMENT": 5.5}
{"CHEM SMILES": "CCCCCCCCON1C(C)(C)CC(OC(=O)CCCCCCCCC(=O)OC2CC(C)(C)N(OCCCCCCCC)C(C)(C)C2)CC1(C)C", "RECORDED MEASUREMENT": 4.7}

Please state Photostabilizer pKa for every molecule in the list that follows.
1. CCCCN(c1nc(NCCO)nc(N(CCCC)C2CC(C)(C)N(OC3CCCCC3)C(C)(C)C2)n1)C1CC(C)(C)N(OC2CCCCC2)C(C)(C)C1
2. CCCCC(Cc1cc(C(C)(C)C)c(O)c(C(C)(C)C)c1)(C(=O)OC1CC(C)(C)N(C)C(C)(C)C1)C(=O)OC1CC(C)(C)N(C)C(C)(C)C1
3. CC1(C)CC(OC(=O)CCCCCCCCC(=O)OC2CC(C)(C)NC(C)(C)C2)CC(C)(C)N1

Solution:
1. 7.0
2. 9.5
3. 9.0
